METHOD: Drug concentration in BALB/c mouse plasma at 5 mg/kg, ip measured upto 24 hrs by LC-MS/MS analysis
Assay type: ADME, organism-based
METRIC_NAME: concentration at 24 h
Answer with the value and then the unit.

Req: State its concentration at 24 h for this compound: `Cl.Cn1cc(CN2CC3(CCN(c4ncc(C(=O)NO)cn4)C3)C2)c2ccc(C#N)cc21`
Resp: 89 ng/mL

###

METHOD: Selectivity index, ratio of IC50 for cytotoxicity against HEK293T cells to IC50 for antimalarial activity against asexual blood stage wild-type Plasmodium falciparum 3D7
Assay type: toxicity, cell-based
MEASUREMENT_CONDITIONS: human, read-out: Ratio IC50
Readings of selectivity ratio for the listed compounds

# count of solved cases: 4
O=C(NO)c1cnc(N2CCC3(CN(Cc4ccc5ccccc5c4)C3)C2)nc1 : 442
O=C(NO)c1cnc(N2CCC3(CN(Cc4cccc5ccncc45)C3)C2)nc1 : 152
Cl.Cn1cc(CN2CC3(CCN(c4ncc(C(=O)NO)cn4)C3)C2)c2ccc(Br)cc21 : 365
O=C(NO)c1cnc(N2CCC3(CN(Cc4ccc(-c5ccccc5)cc4)C3)C2)nc1 : 174

Req: Check the records and state selectivity ratio for `O=C(NO)c1cnc(N2CCC3(CN(Cc4ccco4)C3)C2)nc1`
Resp: > 263

Req: Tell me its selectivity ratio given `COc1ccc2c(CN3CC4(CCN(c5ncc(C(=O)NO)cn5)C4)C3)cn(C)c2c1` as the entry.
Resp: 117

Req: Please supply the value of reported selectivity ratio for the item `O=C(NO)c1cnc(N2CCC3(CN(Cc4ccccn4)C3)C2)nc1`
Resp: > 449

Req: Let me know recorded selectivity ratio for `Cn1cc(CN2CC3(CCN(c4ncc(C(=O)NO)cn4)C3)C2)c2ccccc21` , thanks.
Resp: 331

Req: Quote selectivity ratio reported for `O=C(NO)c1cnc(N2CCC3(CN(Cc4csc5ccccc45)C3)C2)nc1` please.
Resp: 257

Req: Give the reported selectivity ratio for this compound. `Cc1ccc2c(CN3CC4(CCN(c5ncc(C(=O)NO)cn5)C4)C3)cn(C)c2c1`
Resp: 247

Req: Query selectivity ratio for `Cn1cc(CN2CC3(CCN(c4ncc(C(=O)NO)cn4)C3)C2)c2cnccc21`
Resp: > 908

###

CLint scaled values, listed per item
METHOD: Metabolic stability in mouse liver microsomes assessed as intrinsic clearance at […] incubated for 45 mins in presence of NADPH by LC/MS analysis
Type: ADME, Microsome
MEASUREMENT_CONDITIONS: read-out: CLH
Report the value in mL/min/kg with no unit label.

Worked cases, CLint scaled given:
Cl.Cn1cc(CN2CC3(CCN(c4ncc(C(=O)NO)cn4)C3)C2)c2ccc(C#N)cc21 : 68.1
Cl.O=C(NO)c1cnc(N2CCC3(CN(Cc4cnc5ccccc5c4)C3)C2)nc1 : 410
Cl.Cn1cc(CN2CC3(CCN(c4ncc(C(=O)NO)cn4)C3)C2)c2ccc(Br)cc21 : 13.7

From here, focus on the item given below.
Req: Quickly give me recorded CLint scaled for `Cl.Cn1c(CN2CC3(CCN(c4ncc(C(=O)NO)cn4)C3)C2)nc2ccccc21`
Resp: 40.7

###

METHOD: Cytotoxicity against HEK293T cells incubated for 72 hrs by CCK-8 assay
MEASUREMENT_CONDITIONS: human
Measured IC50 at 72 h by item
Expressed in µM, but write only the number.

Observe how each entry below is paired with its result.
O=C(NO)c1cnc(N2CCC3(CN(Cc4ccc(-c5ccccc5)cc4)C3)C2)nc1 : 3.99
Cl.Cn1cc(CN2CC3(CCN(c4ncc(C(=O)NO)cn4)C3)C2)c2ccc(Br)cc21 : 0.72
O=C(NO)c1cnc(N2CCC3(CN(Cc4ccoc4)C3)C2)nc1 : 16.2

Req: Query IC50 at 72 h for `Cc1ccc2c(CN3CC4(CCN(c5ncc(C(=O)NO)cn5)C4)C3)cn(C)c2c1`
Resp: 1.1

Req: Provide one value: measured IC50 at 72 h of `Cn1nc(CN2CC3(CCN(c4ncc(C(=O)NO)cn4)C3)C2)c2ccccc21`
Resp: 7.31
